- TARGET UNDER TEST: T1, human LILRB5 (human, UniProt O75023 24-590)
- T1 construct: Over-expressed on CHO-s cells; also called hLILRB5
- T1 sequence (O75023 24-590 P542R limits assumed): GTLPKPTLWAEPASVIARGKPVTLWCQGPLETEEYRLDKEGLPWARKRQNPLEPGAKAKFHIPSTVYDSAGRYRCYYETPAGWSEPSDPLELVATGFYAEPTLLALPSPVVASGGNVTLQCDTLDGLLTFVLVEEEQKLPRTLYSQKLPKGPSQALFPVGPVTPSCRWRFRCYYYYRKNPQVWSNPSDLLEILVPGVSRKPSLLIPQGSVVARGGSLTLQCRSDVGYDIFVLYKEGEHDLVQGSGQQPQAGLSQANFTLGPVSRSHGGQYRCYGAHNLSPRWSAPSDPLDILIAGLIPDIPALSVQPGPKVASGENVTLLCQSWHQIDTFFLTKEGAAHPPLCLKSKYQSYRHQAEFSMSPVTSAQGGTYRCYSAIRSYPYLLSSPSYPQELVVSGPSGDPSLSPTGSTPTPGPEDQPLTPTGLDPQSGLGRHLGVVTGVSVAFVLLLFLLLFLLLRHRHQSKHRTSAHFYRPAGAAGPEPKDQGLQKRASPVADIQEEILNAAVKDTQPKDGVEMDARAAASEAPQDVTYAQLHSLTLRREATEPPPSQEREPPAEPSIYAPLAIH
- TEST DESCRIPTION: flow cytometry, LILRB5 CHOs

{"columns": ["BINDER", "binding result"],
 "data": [
  ["J-19 (antibody, human IgG4 S228P, kappa, V domains shown, Human IgG4 chimera from a rat immunization; also called J-19.h) VH: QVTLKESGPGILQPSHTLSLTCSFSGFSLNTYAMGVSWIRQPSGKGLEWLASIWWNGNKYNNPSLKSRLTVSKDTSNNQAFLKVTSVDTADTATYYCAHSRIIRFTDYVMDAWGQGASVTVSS VL: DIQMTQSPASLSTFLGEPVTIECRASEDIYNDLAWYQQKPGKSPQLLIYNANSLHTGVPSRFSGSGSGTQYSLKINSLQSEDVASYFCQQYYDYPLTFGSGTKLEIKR", "no binding"],
  ["J-11 (antibody, human IgG4 S228P, kappa, V domains shown, Human IgG4 chimera of murine origin; also called J-11.h) VH: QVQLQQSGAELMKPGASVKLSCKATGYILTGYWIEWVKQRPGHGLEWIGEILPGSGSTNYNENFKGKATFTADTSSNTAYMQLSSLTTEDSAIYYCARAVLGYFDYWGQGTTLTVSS VL: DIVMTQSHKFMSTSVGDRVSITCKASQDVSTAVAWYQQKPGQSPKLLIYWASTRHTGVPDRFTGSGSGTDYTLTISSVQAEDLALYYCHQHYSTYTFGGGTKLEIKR", "no binding"],
  ["J-17 (antibody, human IgG4 S228P, kappa, V domains shown, Human IgG4 chimera of murine origin; also called J-17.h) VH: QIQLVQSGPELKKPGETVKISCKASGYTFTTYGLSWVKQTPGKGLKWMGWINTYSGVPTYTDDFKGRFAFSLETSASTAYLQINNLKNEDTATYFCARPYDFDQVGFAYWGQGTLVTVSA VL: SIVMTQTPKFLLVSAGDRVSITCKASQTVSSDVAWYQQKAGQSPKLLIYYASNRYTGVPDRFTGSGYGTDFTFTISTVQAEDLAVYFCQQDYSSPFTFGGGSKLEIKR", "no binding"]
]}

Each recorded value in this set is attributed to patent US20200339690A1.
